- Tested on: KM20L2 colon
- Experimental protocol: NCI tumour cell line growth inhibition, 48 h
Below: a set of entries, each annotated with reported TGI.

Illustrative cases are given below, each with its answer.
O=C1C=C(Nc2ccc(Cl)cc2C(=O)c2ccccc2)c2ccccc2C1=O :: > 100 µM
COc1ccc(NC(=O)CSc2nnc(-c3ccc(NC(C)=O)cc3)o2)cc1 :: 36.8 µM
O=C1C=C(c2c(O)ccc3ccccc23)c2cc(O)ccc2C1=O :: 38.7 µM

Now consider a different compound.
# input Please state recorded TGI (tested on KM20L2 colon) of O/N=C1\CCCCC1C(NO)c1ccccc1 (stereo not given)
# output > 100 µM

Reference source: PubChem BioAssay (NCI)
